These data points were gathered from patent US20050014811A1.

molecular target: CDK2/CyclinE (Homo sapiens); assay: CDK2/CyclinE Flashplate assay, 96-well format, biotinylated-Rb peptide substrate
pIC50: −log10 of the molar value.
Let's look at some molecules and their measured pIC50.

| molecule | tested-target | pIC50 |
| --- | --- | --- |
| COC(=O)Nc1nc2cc(OS(=O)(=O)c3ccc(NCC(=O)O)cc3)ccc2[nH]1 [Example 7] | CDK2/CyclinE (Homo sapiens) | 5.70 |
| COC(=O)Nc1nc2cc(OS(=O)(=O)c3ccc(NCCS(=O)(=O)O)cc3)ccc2[nH]1 [Example 15] | CDK2/CyclinE (Homo sapiens) | 5.74 |
| O=C(Nc1nc2cc(OS(=O)(=O)c3ccc(-n4ccnc4)cc3)ccc2[nH]1)NC1CCCCC1 [Example 57-b] | CDK2/CyclinE (Homo sapiens) | 5.72 |
| CC(C)(C)NC(=O)Nc1nc2cc(OS(=O)(=O)c3ccc(NC4CCCC4)cc3)ccc2[nH]1 [Example 53] | CDK2/CyclinE (Homo sapiens) | 6.10 |
| O=C(NCc1ccncc1)Nc1nc2cc(OS(=O)(=O)c3ccc(NC4CCCC4)cc3)ccc2[nH]1 [Example 52] | CDK2/CyclinE (Homo sapiens) | 7.10 |
| COC(=O)Nc1nc2cc(OS(=O)(=O)c3ccc(OCC(=O)NCc4ccco4)cc3)ccc2[nH]1 [Example 66-c] | CDK2/CyclinE (Homo sapiens) | 6.00 |
| COCC(C)NC(=O)Nc1nc2cc(OS(=O)(=O)c3ccc(NCC4CCCO4)cc3)ccc2[nH]1 (centres unmarked) [Example 59-e] | CDK2/CyclinE (Homo sapiens) | 7.00 |
| CCOC(=O)c1cccc(Nc2nc3cc(OS(=O)(=O)c4ccc(NC5CCCC5)cc4)ccc3[nH]2)c1 [Example 70-g] | CDK2/CyclinE (Homo sapiens) | 5.82 |

---

biological target: CDK2/CyclinE (Homo sapiens, UniProt P24941); assay: CDK2/CyclinE Flashplate assay, 96-well format, biotinylated-Rb peptide substrate; type: biochemical
pIC50: −log10 of the molar value.

| compound | pIC50 |
| --- | --- |
| O=C(NCc1ccccc1Cl)Nc1nc2cc(OS(=O)(=O)c3ccc(-n4ccnc4)cc3)ccc2[nH]1 | 6.22 |
| O=C(NCCOCCO)Nc1nc2cc(OS(=O)(=O)c3ccc(NC4CCCC4)cc3)ccc2[nH]1 | 6.74 |
| CCNC(=O)Nc1nc2cc(OS(=O)(=O)c3ccc(NCC4CCCO4)cc3)ccc2[nH]1 (centres unmarked) | 8.15 |
| COC(=O)Nc1nc2cc(OS(=O)(=O)c3c(F)cccc3F)ccc2[nH]1 | 7.15 |
| O=C(NCCO)Nc1nc2cc(OS(=O)(=O)c3ccc(NC4CCCC4)cc3)ccc2[nH]1 | 7.40 |
| O=C(NCCCCO)Nc1nc2cc(OS(=O)(=O)c3ccc(NCC4CCCO4)cc3)ccc2[nH]1 (centres unmarked) | 7.82 |
| COCC(=O)Nc1nc2cc(OS(=O)(=O)c3ccc(NC4CCCC4)cc3)ccc2[nH]1 | 6.22 |
| O=C(Nc1ccc(F)cc1)Nc1nc2cc(OS(=O)(=O)c3ccc(NC4CCCC4)cc3)ccc2[nH]1 | 6.15 |

---

biological target: CDK4/CyclinD1 (Homo sapiens, UniProt P11802); experiment: CDK4/CyclinD1 Flashplate assay, 96-well format, biotinylated-Rb peptide substrate
Sequence (P11802 whole entry, species assumed): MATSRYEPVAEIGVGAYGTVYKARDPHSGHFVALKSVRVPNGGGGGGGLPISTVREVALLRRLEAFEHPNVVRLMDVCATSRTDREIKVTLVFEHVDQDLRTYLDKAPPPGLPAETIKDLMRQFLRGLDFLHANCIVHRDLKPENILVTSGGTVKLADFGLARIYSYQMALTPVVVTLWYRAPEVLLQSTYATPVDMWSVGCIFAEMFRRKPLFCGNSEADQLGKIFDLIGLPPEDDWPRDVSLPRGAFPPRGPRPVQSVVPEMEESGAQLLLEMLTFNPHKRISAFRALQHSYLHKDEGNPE
Sequence (P24385 whole entry partner, species assumed): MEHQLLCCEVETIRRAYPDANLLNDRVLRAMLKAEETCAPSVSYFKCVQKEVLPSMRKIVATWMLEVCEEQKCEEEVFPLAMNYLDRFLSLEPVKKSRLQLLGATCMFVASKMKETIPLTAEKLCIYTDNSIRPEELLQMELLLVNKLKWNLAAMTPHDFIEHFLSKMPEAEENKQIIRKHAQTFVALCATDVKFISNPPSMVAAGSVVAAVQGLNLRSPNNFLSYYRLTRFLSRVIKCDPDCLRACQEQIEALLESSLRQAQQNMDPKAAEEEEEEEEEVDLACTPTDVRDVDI
Consider the following partition of reported IC50 into named classes: low class (below 500 nM), middle class (500 nM to below 1000 nM), high class (1000 nM or more)

| compound | class-label |
| --- | --- |
| COCCNc1ccc(S(=O)(=O)Oc2ccc3[nH]c(NC(=O)OC)nc3c2)cc1 | high class |
| COCCCNc1ccc(S(=O)(=O)Oc2ccc3[nH]c(NC(=O)OC)nc3c2)cc1 | low class |
| O=S(=O)(Oc1ccc2[nH]c(Nc3ccc(N4CCOCC4)cc3)nc2c1)c1ccc(NC2CCCC2)cc1 | middle class |
| O=C(NCCO)Nc1nc2cc(OS(=O)(=O)c3ccc(NC4CCCC4)cc3)ccc2[nH]1 | low class |
| COc1cccc(NC(=O)Nc2nc3cc(OS(=O)(=O)c4ccc(NC5CCCC5)cc4)ccc3[nH]2)c1 | high class |
| O=C(NCC1CCNCC1)Nc1nc2cc(OS(=O)(=O)c3ccc(NC4CCCC4)cc3)ccc2[nH]1 | low class |
| CNc1ccc(S(=O)(=O)Oc2ccc3[nH]c(NC(=O)C4CC4)nc3c2)cc1 | low class |
| COC(=O)Nc1nc2cc(OS(=O)(=O)c3ccc(NC(C)CO)cc3)ccc2[nH]1 (stereo not shown) | high class |
| O=C(NCCN1CCOCC1)Nc1nc2cc(OS(=O)(=O)c3ccc(NCC4CCCO4)cc3)ccc2[nH]1 (stereo not shown) | high class |
| O=C(NCc1ccccc1F)Nc1nc2cc(OS(=O)(=O)c3ccc(-n4ccnc4)cc3)ccc2[nH]1 | high class |
| CCOC(=O)CCCNC(=O)Nc1nc2cc(OS(=O)(=O)c3ccc(NC4CCCC4)cc3)ccc2[nH]1 | middle class |
| COC(=O)Nc1nc2cc(OS(=O)(=O)c3ccc(C#N)cc3)ccc2[nH]1 | high class |
| COc1ccc(Nc2nc3cc(OS(=O)(=O)c4ccc(NC5CCCC5)cc4)ccc3[nH]2)cc1OC | middle class |
| CN(C)C(=O)Nc1nc2cc(OS(=O)(=O)c3ccc(NC4CCCC4)cc3)ccc2[nH]1 | high class |
| O=C(NCc1ccccn1)Nc1nc2cc(OS(=O)(=O)c3ccc(NC4CCCC4)cc3)ccc2[nH]1 | low class |
| CCN1CCCC1CNC(=O)Nc1nc2cc(OS(=O)(=O)c3ccc(NCC4CCCO4)cc3)ccc2[nH]1 (stereo not shown) | high class |
| COC(=O)Nc1nc2cc(OS(=O)(=O)c3ccc(-c4cc(C(F)(F)F)n(C)n4)s3)ccc2[nH]1 | high class |
| CCC(CO)Nc1ccc(S(=O)(=O)Oc2ccc3[nH]c(NC(=O)OC)nc3c2)cc1 (stereo not shown) | middle class |
| O=C(NCCN1CCOCC1)Nc1nc2cc(OS(=O)(=O)c3ccc(NC4CCCC4)cc3)ccc2[nH]1 | low class |
| O=C(Nc1nc2cc(OS(=O)(=O)c3ccc(-n4ccnc4)cc3)ccc2[nH]1)Nc1ccccc1F | middle class |
| COC(=O)Nc1nc2cc(OS(=O)(=O)c3ccc(NCC(=O)O)cc3)ccc2[nH]1 | low class |
| CCOC(=O)C1CCN(C(=O)Nc2nc3cc(OS(=O)(=O)c4ccc(NC5CCCC5)cc4)ccc3[nH]2)CC1 | high class |
| CN1CCN(c2ccc(Nc3nc4cc(OS(=O)(=O)c5ccc(NC6CCCC6)cc5)ccc4[nH]3)cc2)CC1 | low class |
| COCCNc1ccc(S(=O)(=O)Oc2ccc3[nH]c(NC(=O)NCc4ccccn4)nc3c2)cc1 | low class |
| COC(=O)Nc1nc2cc(OS(=O)(=O)c3c(F)cccc3F)ccc2[nH]1 | middle class |
| O=C(NCCNCCO)Nc1nc2cc(OS(=O)(=O)c3ccc(NCC4CCCO4)cc3)ccc2[nH]1 (stereo not shown) | middle class |
| NC(=O)CCNC(=O)Nc1nc2cc(OS(=O)(=O)c3ccc(NC4CCCC4)cc3)ccc2[nH]1 | low class |

---

Let's look at some molecules and their measured melting point.
quantity-name: melting point (°C)

| molecule | quantity-name | endpoint-value |
| --- | --- | --- |
| COC(=O)Nc1nc2cc(OS(=O)(=O)c3ccc(NCCCCO)cc3)ccc2[nH]1 [Example 2] | melting point | 180 |
| COC(=O)Nc1nc2cc(OS(=O)(=O)c3ccc(NCCO)cc3)ccc2[nH]1 [Example 1] | melting point | 170 |
| COC(=O)Nc1nc2cc(OS(=O)(=O)c3ccc(-n4ccnc4)cc3)ccc2[nH]1 [Example 4] | melting point | 258 |
| COCCNc1ccc(S(=O)(=O)Oc2ccc3[nH]c(NC(=O)OC)nc3c2)cc1 [Example 3] | melting point | 155 |

---

Let's look at some molecules and their measured pIC50.
molecular target: CDK2/CyclinE (Homo sapiens); test: CDK2/CyclinE Flashplate assay, 96-well format, biotinylated-Rb peptide substrate
pIC50: −log10 of the molar value.

| molecule | tested-target | pIC50 |
| --- | --- | --- |
| COC(=O)Nc1nc2cc(OS(=O)(=O)c3ccc(NCc4ccccn4)cc3)ccc2[nH]1 [Example 5] | CDK2/CyclinE (Homo sapiens) | 5.66 |
| NC(=O)CNC(=O)Nc1nc2cc(OS(=O)(=O)c3ccc(NCC4CCCO4)cc3)ccc2[nH]1 (stereo not shown) [Example 59-a] | CDK2/CyclinE (Homo sapiens) | 8.10 |
| CC(C)(N)CNC(=O)Nc1nc2cc(OS(=O)(=O)c3ccc(NC4CCCC4)cc3)ccc2[nH]1 [Example 58-w] | CDK2/CyclinE (Homo sapiens) | 6.60 |
| COC(=O)Nc1nc2cc(OS(=O)(=O)c3ccc(NCC4CCCO4)cc3)ccc2[nH]1 (stereo not shown) [Example 18] | CDK2/CyclinE (Homo sapiens) | 6.22 |
